Target Or System: UniProtKB P22303
Sequence (P22303 32-614, species assumed): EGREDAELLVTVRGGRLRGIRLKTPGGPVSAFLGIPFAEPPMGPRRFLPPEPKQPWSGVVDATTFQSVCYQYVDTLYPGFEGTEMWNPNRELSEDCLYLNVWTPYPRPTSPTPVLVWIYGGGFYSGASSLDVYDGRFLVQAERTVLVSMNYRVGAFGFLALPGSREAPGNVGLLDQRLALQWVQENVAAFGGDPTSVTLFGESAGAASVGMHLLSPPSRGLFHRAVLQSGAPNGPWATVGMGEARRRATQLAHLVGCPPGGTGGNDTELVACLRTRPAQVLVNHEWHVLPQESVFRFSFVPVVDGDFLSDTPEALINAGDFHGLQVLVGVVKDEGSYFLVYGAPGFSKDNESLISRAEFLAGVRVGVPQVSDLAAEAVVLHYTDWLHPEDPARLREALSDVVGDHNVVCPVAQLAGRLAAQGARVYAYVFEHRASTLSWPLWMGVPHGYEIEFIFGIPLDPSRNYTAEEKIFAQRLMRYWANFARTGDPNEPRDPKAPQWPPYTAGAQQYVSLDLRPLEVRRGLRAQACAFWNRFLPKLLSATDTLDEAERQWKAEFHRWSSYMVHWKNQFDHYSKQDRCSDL
Measurement Kind: IC50 (µM)
Answer format: numeric, µM implied, no suffix.

Worked cases, IC50 given:
- Query Smiles: "Cc1cc(=O)oc2cc(OCC(=O)NN=Cc3ccc(C(=O)O)cc3)ccc12"
  IC50 / µM: 3.15
- Query Smiles: "Cc1cc(=O)oc2cc(OCC(=O)NN=C3C(=O)Nc4ccccc43)ccc12"
  IC50 / µM: 20.9
- Query Smiles: "Cc1cc(=O)oc2cc(OCC(=O)NN=C3CCc4ccccc43)ccc12"
  IC50 / µM: 2.21

Data request: Give recorded IC50. Cc1cc(=O)oc2cc(OCC(=O)NN=C3CCCc4ccccc43)ccc12
Data returned: 13.1
